Could you please report measured 3' UTR reporter interaction score for the items listed next?
# System: NOTCH1
# EXPERIMENT DESCRIPTION: 3' UTR reporter interaction score (median-centred robust z-score of log2 firefly/Renilla activity); higher = less repression of the 3' UTR reporter
# TEST CONDITIONS: HEK293T; 48 h
Give bare numbers.

[in] Fill blank: measured 3' UTR reporter interaction score of the sequence `UAUGGCACUGGUAGAAUUCACUG` is ____.
[out] -0.295

[in] Repeat with `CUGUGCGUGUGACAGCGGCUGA`
[out] 0.0936

[in] Repeat with `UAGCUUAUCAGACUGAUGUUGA`
[out] -0.0874

[in] Repeat with `CCUCUGGGCCCUUCCUCCAG`
[out] -0.555

[in] Repeat with `UGCCUGGGUCUCUGGCCUGCGCGU`
[out] 0.3

Please give 3' UTR reporter interaction score for each item listed below.
1. GCGACCCACUCUUGGUUUCCA
2. UUGAAACAAUCUCUACUGAAC
3. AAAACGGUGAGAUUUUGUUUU

[out]
1. 0.563
2. 0.836
3. -1.23

Please give 3' UTR reporter interaction score for each item listed below.
1. ACCAUCGACCGUUGAUUGUACC
2. AAUGGCGCCACUAGGGUUGUGCA
3. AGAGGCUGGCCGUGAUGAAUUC

[out]
-0.491
-0.589
0.488

Please give 3' UTR reporter interaction score for each item listed below.
1. UAUGGCUUUUCAUUCCUAUGUG
2. UUGUACAUGGUAGGCUUUCAUU
3. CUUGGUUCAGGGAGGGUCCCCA
4. ACUUACAGACAAGAGCCUUGCUC

[out]
[0.259, 0.647, -0.824, 0.216]

Please give 3' UTR reporter interaction score for each item listed below.
1. CUCUAGAGGGAAGCACUUUCUCU
2. UGCUUCCUUUCAGAGGGU
3. AGUGACAUCACAUAUACGGCAGC
4. AGCUGGUGUUGUGAAUC

[out]
0.176
0.215
0.273
0.152

Please give 3' UTR reporter interaction score for each item listed below.
1. AGGGUGUUUCUCUCAUCUCU
2. CCACACCGUAUCUGACACUUU
3. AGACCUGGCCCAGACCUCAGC

[out]
1: -1.24; 2: -0.439; 3: -0.568

Please give 3' UTR reporter interaction score for each item listed below.
1. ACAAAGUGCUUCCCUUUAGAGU
2. AACAUUCAUUGCUGUCGGUGGG
3. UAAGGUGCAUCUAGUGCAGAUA
4. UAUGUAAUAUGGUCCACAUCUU

[out]
[0.795, -0.249, 0.283, 0.765]

Please give 3' UTR reporter interaction score for each item listed below.
1. AGGGAUCGCGGGCGGGUGGCGGCCU
2. GUGCAUUGCUGUUGCAUUGCA
3. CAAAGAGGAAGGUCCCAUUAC

[out]
1: 0.433; 2: 0.367; 3: -0.106

Please give 3' UTR reporter interaction score for each item listed below.
1. AAAAGUGCUUACAGUGCAGGUAGC
2. AGUGGUUUUACCCUAUGGUAG
3. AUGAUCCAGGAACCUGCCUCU
4. UGAGUUGGCCAUCUGAGUGAG

[out]
1. 0.451
2. -0.395
3. 0.405
4. 1.03
